- Tested on: DeltatarO mutant
- Protocol notes: S. aureus survival, RN4220 and DeltatarO strains – OD600, teichoic acid synthesis inhibitors, primary screen (AID 463173)
- Stated conditions: S. aureus RN4220 wild type/DeltatarO growth, OD600, 18 h, active compounds read low, screened at 18.75 µg/mL (by protocol)
Out of some 52,000 compounds screened, about 4,300 (8.3%) were called active. The full list was thinned out, with actives kept by preference.
Measured quantity: survival (%)
Quick reminder: number only, in %, skip the unit.

Guide cases for survival, answers given:
COc1ccc(NC(=O)CCc2nnc3n(C)c(=O)c4sccc4n23)cc1Cl | 78
Cc1c(-c2nc(-c3ccccc3)no2)nnn1-c1cccc(C(F)(F)F)c1 | 80

Measured survival, CCCNC(=O)N1CCCN(S(=O)(=O)c2ccc3c(ccn3CC)c2)CC1 : 79

Note to self: survival recorded for CCc1ccc(NC(=O)Cn2c(=O)n(Cc3ccco3)c(=O)c3cccnc32)cc1 was 82

* * *

- Test system: DeltatarO mutant
- Protocol notes: S. aureus survival, RN4220 and DeltatarO strains – OD600, teichoic acid synthesis inhibitors, primary screen (AID 463173)
- Stated conditions: S. aureus RN4220 wild type/DeltatarO growth, OD600, 18 h, screened at 18.75 µg/mL (by protocol)
Screen size: about 52,000 compounds; about 4,300 (8.3%) were called active. No stated cut-off is given here; in the data, active means survival mostly below about 52% (no sharp cut-off); inactive means mostly above about 56%. Many of the other results were omitted from the sample, so actives are more common in it than they were.
The reply should be one of these categories: yes for active, no for inactive

CCOc1ccc(NC(=O)CSc2nc3ccsc3c(=O)n2CC)cc1 | no
CC(=O)CSc1nnc2cc(C)c3cc(C)cc(C)c3n12 | no

QUERY: Please share the test call associated with CCc1ccc(-n2c(=O)c3c4c(sc3n(CC(=O)c3ccc(Cl)cc3)c2=O)CCC4)cc1 .
RESULT: no

QUERY: Recorded call for O=[N+]([O-])c1cc(-c2nc(-c3ccccc3)no2)ccc1NC1CCCCC1 ?
RESULT: no

QUERY: Returns: the outcome recorded for CCSc1nc2ccccc2c(OCc2ccc(Cl)cc2)c1C(=O)OC in this assay.
RESULT: no

QUERY: Field: outcome | Entry: O=C(Oc1ccc2c(c1)OCO2)c1cccc(S(=O)(=O)N2CCCC2)c1
RESULT: no

QUERY: Identify the outcome logged in this assay for the compound shown: CC(=O)Nc1nonc1-c1nnc(SCc2ccc(Cl)cc2)n1C
RESULT: yes

QUERY: Can you look up the reported call for CC(=O)Nc1nonc1-c1nnc(SCc2ccccc2F)n1C for me?
RESULT: no

QUERY: I would be grateful if you could indicate the recorded call for O=C(CN1CCSc2ccccc21)N1CCCCC1 .
RESULT: no

QUERY: Any idea what this test logged for CCC1CN(C(=O)N2CCC(C(=O)NCc3ccc(OC)cc3OC)CC2)c2cc(C)ccc2O1 (stereo not drawn) ?
RESULT: no

QUERY: Recorded test outcome, item CCc1ccc(NC(=O)Cn2nnc(C(=O)Nc3ccc(F)cc3)c2N)cc1
RESULT: no

* * *

- Test system: DeltatarO mutant
- Protocol notes: S. aureus survival, RN4220 and DeltatarO strains – OD600, teichoic acid synthesis inhibitors, primary screen (AID 463173)
- Stated conditions: S. aureus RN4220 wild type/DeltatarO growth, OD600, 18 h, screened at 18.75 µg/mL (by protocol)
Out of some 52,000 compounds screened, about 4,300 (8.3%) were called active. Cut-off read from the data, not from the text of the source: active = survival mostly below about 52% (no sharp cut-off); inactive = mostly above about 56%. This is one part of a sample in which actives are shown more often than they occur.
Give your call using only these classes: True = active, False = inactive

Would you please look over these solved cases?
Cc1ccc(CNC(=O)Cc2c(C(=O)O)c(C)cn2C)cc1 | False
Cc1cccc(NC(=O)C2CCCN(S(=O)(=O)c3cccc4nonc34)C2)c1 (configuration not stated) | False
CCOC(=O)c1c(NC(=O)CSc2cn(CCNC(=O)c3c(F)cccc3F)c3ccccc23)sc2c1CCC2 | False
CCOC(=O)c1cc(-c2ccccc2)n(-c2cccc(C(=O)Nc3cccc(C(C)=O)c3)c2)c1C | False
Cc1cc(C(=O)NCC(=O)O)c(C)o1 | False

QUERY: GET /call?item= Cc1ccccc1OCCSc1nc2ccc(NC(=O)c3ccccc3)cc2s1 returns the recorded outcome of this test.
RESULT: False

QUERY: What is the recorded call for this compound in the test? CCc1ccccc1NC(=O)c1cc2nc(-c3ccc(OC)c(OC)c3)cc(C(F)(F)F)n2n1
RESULT: True

* * *

- Test system: DeltatarO mutant
- Protocol notes: S. aureus survival, RN4220 and DeltatarO strains – OD600, teichoic acid synthesis inhibitors, primary screen (AID 463173)
- Stated conditions: S. aureus RN4220 wild type/DeltatarO growth, OD600, 18 h, active compounds read low, screened at 18.75 µg/mL (by protocol)
Screen size: about 52,000 compounds; about 4,300 (8.3%) were called active. Only a selection was taken, and actives are over-represented in it overall.
// reported survival per item
Numbers only here, please. The scale is %.

Nc1c(C(=O)Nc2cccc(F)c2)sc2nc(-c3cccs3)ccc12 | 69
CCN1C(=O)c2ccccc2Sc2ccc(NC(=O)Nc3ccc(Br)c(C)c3)cc21 | 71

Observed survival on DeltatarO mutant, entry COc1cccc(C(=O)Nc2ccc(Cl)c(-c3nc4ccccc4[nH]3)c2)c1 , equals 68

* * *

- Test system: DeltatarO mutant
- Protocol notes: S. aureus survival, RN4220 and DeltatarO strains – OD600, teichoic acid synthesis inhibitors, primary screen (AID 463173)
- Stated conditions: S. aureus RN4220 wild type/DeltatarO growth, OD600, 18 h, active compounds read low, screened at 18.75 µg/mL (by protocol)
About 4,300 (8.3%) of roughly 52,000 compounds were called active. The list comes from a sample in which actives are over-represented; it also holds close analogues and randomly drawn compounds.
Measured quantity: survival (%)
Respond numerically; units are % and should not be typed.

Note to self: survival recorded for COc1cccc(NC(=O)Nc2cccc(-c3cn4cccnc4n3)c2)c1 was 78

* * *

- System: DeltatarO mutant
- Protocol notes: S. aureus survival, RN4220 and DeltatarO strains – OD600, teichoic acid synthesis inhibitors, primary screen (AID 463173)
- Stated conditions: S. aureus RN4220 wild type/DeltatarO growth, OD600, 18 h, screened at 18.75 µg/mL (by protocol)
Among all 52,000 compounds or so, about 4,300 (8.3%) were called active. Rule as the data show it: active = survival mostly below about 52% (no sharp cut-off); inactive = mostly above about 56%. What follows is part of a selection rich in actives, with near analogues and random picks from the rest.
Please reply with one of these outcomes: class 1 for active, class 0 for inactive

Example cases with answers are listed next.
COc1ccccc1CNC(=O)C(=O)NCC(c1cccs1)S(=O)(=O)c1ccc(F)cc1 (stereo unspecified) | class 0
CCOC(=O)c1ccc(N2C(=O)c3n[nH]c(C)c3C2c2ccc(CC)cc2)cc1 (stereo unspecified) | class 0
CC1N=C2c3ccccc3N=C(SCC(=O)NCCc3ccc(Cl)cc3)N2C1=O (stereo unspecified) | class 0
Cc1cc(Nc2ccc(C)c(Cl)c2)n2nc(Cc3ccccc3)nc2n1 | class 1

QUERY: Status in this test for Cn1nc(-c2ccccc2F)c2cc(C(=O)N3CCN(c4ccccc4F)CC3)sc21 ?
RESULT: class 0

QUERY: Hi team, can someone confirm the assay call for COc1ccc(-c2nn(C)c3sc(C(=O)N4CCN(c5cccc(Cl)c5)CC4)cc23)cc1OC ?
RESULT: class 1

QUERY: Which result was noted for this molecule in the test: O=C(CCCn1c(=O)[nH]c2ccc(Br)cc2c1=O)N1CCN(c2cccc(Cl)c2)CC1
RESULT: class 1

QUERY: Write down the call the test reported for this molecule. Item: CCOc1cc2[nH]c(=O)n(CCCC(=O)N3CCN(c4cccc(Cl)c4)CC3)c(=O)c2cc1OCC
RESULT: class 0

QUERY: // param item: Cc1ccc(S(=O)(=O)NCc2nc3cccnc3n2Cc2ccccc2Cl)c(C)c1 ; yields the recorded call
RESULT: class 0

QUERY: Assay result, entry Cc1cc(Nc2ccccc2C)n2nc(Cc3ccc(Cl)cc3)nc2n1 — outcome?
RESULT: class 0

QUERY: Could you kindly confirm the outcome this assay logged for CCOC(=O)c1cc(=O)n2[nH]c(-c3ccc(Br)cc3)cc2n1 ?
RESULT: class 0

QUERY: Which outcome was entered for the molecule Cc1cc(Nc2cc(Cl)ccc2C)n2nc(Cc3ccccc3)nc2n1 in this test?
RESULT: class 0

QUERY: What was the test verdict on COc1ccc(C(=O)N2CC(=O)Nc3ccc(Br)cc3C2c2ccc(F)cc2)cc1OC (stereo unspecified) ?
RESULT: class 0

QUERY: Hi, do you know how Cc1cc(Nc2ccc(C)c(Cl)c2)n2nc(-c3ccccc3)nc2n1 came out in this test?
RESULT: class 0

QUERY: Dear all, I need the recorded test outcome for O=C(CSc1ncc2c(n1)-c1ccccc1N(Cc1ccc(F)cc1)S2(=O)=O)c1ccc(Cl)cc1 , thank you.
RESULT: class 0

QUERY: Please share the test call associated with O=C1CN(C(=O)c2c(F)cccc2Cl)C(c2ccc(F)cc2)c2cc(Br)ccc2N1 (stereo unspecified) .
RESULT: class 1

QUERY: Record request — test call for CCOC(=O)c1ccc(N2C(=O)c3[nH]nc(-c4ccccc4)c3C2c2ccc(CC)cc2)cc1 (stereo unspecified)
RESULT: class 0
